Listed here are compounds together with their documented IC50.
# measured.on: SARM1 (50-724) (Homo sapiens)
# Sequence (Q6SZW1 50-724): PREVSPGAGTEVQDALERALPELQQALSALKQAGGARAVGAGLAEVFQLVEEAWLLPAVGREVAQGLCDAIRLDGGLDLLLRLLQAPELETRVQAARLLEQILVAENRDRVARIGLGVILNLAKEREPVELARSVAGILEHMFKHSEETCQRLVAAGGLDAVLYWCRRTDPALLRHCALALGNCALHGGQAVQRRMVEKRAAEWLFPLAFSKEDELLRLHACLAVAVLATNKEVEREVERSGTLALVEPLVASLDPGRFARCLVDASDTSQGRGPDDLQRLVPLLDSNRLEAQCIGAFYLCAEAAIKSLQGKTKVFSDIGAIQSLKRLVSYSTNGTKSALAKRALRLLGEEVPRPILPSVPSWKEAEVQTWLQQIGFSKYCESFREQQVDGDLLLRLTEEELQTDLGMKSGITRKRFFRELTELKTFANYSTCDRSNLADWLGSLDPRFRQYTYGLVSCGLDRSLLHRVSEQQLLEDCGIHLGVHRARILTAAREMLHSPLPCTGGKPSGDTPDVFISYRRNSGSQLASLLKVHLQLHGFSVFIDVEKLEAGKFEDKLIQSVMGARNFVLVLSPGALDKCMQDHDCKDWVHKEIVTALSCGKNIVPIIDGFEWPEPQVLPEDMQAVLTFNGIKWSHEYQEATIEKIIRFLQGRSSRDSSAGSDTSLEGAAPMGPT
# assay.notes: biochemical

Would you please look over these solved cases?
compound | observed
CC(Nc1cc(F)c2ncn(-c3cnn[nH]3)c(=O)c2c1)c1nc(Cl)c(Cl)s1 (racemic) [Example 372] | < 100 nM
CC(Nc1ccc2cc[nH]c(=O)c2c1)c1nn(C2CC2)c(Cl)c1Cl (racemic) [Compound 321] | < 100 nM
O=c1[nH]ccc2ccc(NC(CCO)c3cccc(Cl)c3Cl)cc12 (racemic) [Compound 252] | < 100 nM

Okay, next one:
Qu. Which IC50 value is on record for CC(Nc1ccc2nccc(=O)n2c1)c1cccc(Cl)c1Cl (racemic) [Example 148] ?
Ans. > 1000 nM
